# experimental_system: SMARCA2 (Homo sapiens, UniProt P51531)
# Sequence (P51531 whole entry): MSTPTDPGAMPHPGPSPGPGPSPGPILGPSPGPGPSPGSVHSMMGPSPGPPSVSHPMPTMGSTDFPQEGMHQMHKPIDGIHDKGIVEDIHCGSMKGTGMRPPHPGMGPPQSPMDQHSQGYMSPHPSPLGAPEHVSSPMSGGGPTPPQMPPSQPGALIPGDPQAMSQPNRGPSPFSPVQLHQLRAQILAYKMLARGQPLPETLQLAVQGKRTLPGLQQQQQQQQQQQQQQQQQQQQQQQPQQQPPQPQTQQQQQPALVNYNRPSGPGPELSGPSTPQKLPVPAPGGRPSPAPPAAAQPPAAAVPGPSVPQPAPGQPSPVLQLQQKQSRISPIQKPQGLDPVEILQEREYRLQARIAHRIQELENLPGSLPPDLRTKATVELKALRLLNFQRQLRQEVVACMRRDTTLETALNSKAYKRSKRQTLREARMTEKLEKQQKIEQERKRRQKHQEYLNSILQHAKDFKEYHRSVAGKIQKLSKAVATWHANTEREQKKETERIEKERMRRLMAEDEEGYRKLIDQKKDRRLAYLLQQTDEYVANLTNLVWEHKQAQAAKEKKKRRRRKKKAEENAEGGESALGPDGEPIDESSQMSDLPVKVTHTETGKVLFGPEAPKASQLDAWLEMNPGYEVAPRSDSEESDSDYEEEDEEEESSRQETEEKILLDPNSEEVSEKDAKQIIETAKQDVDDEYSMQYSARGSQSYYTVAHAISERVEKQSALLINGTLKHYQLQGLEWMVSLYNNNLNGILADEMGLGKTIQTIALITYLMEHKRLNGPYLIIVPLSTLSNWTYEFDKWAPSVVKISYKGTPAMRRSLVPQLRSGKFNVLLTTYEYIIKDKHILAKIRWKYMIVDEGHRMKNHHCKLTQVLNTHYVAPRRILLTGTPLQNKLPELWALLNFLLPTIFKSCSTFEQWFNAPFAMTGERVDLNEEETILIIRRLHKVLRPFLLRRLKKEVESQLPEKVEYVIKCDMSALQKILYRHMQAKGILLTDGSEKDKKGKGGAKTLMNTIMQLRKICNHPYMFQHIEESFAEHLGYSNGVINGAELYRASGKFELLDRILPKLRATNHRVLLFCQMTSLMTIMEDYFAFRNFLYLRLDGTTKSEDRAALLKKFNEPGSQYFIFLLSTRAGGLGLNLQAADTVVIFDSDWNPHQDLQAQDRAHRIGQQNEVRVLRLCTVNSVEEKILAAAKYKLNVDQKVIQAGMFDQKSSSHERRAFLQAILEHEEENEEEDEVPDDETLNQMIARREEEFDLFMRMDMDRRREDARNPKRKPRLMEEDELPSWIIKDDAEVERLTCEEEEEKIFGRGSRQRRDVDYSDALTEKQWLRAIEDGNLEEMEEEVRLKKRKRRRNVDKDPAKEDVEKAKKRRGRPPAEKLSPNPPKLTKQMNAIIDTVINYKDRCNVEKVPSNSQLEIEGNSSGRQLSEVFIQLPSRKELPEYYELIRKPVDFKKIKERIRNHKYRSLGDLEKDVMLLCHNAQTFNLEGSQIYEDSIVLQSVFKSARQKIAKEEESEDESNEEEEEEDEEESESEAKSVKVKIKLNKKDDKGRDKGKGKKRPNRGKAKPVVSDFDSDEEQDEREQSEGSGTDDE
# protocol_summary: SMARCA2 Western blot degradation in MV4-11 cells
# Format: cell-based
# Set-up: SMARCA2/SMARCA4 protein degradation selectivity in MV4-11 cells; endogenous in cells; host or cells: MV4-11
# measurement_conditions: SMARCA2/4 selectivity, MV4-11 cells
readout_label: Selectivity in MV411

Example cases with answers are listed next.
1. Cc1ncsc1-c1ccc(CNC(=O)[C@@H]2C[C@@H](O)CN2C(=O)[C@@H](NC(=O)[C@H]2CC3(C2)C[C@H](N2CCC(c4ccnc(N5CCN6c7cc(-c8ccccc8O)nnc7NC[C@H]6C5)n4)CC2)C3)C(C)(C)C)cc1 (single isomer, unassigned) [I-27]; A (A (>500 fold))
2. C#Cc1ccc(CNC(=O)[C@@H]2C[C@@H](O)CN2C(=O)[C@@H](NC(=O)[C@H]2CCC3(CC2)C[C@H](N2CCC(c4cnc(N5CCN6c7cc(-c8ccccc8O)nnc7NC[C@H]6C5)nc4)CC2)C3)C(C)(C)C)c(F)c1 (single isomer, unassigned) [I-116]; B (B (>100-500 fold))
3. C#Cc1ccc(CNC(=O)[C@@H]2C[C@@H](O)CN2C(=O)[C@@H](NC(=O)N2CCC(CN3CCC(N4CCc5[nH]c6nnc(-c7ccccc7O)cc6c5[C@H]4C)CC3)CC2)C(C)(C)C)cc1; C (C (10-100 fold))
4. C#Cc1ccc(CNC(=O)[C@@H]2C[C@@H](O)CN2C(=O)[C@@H](NC(=O)N2CC3(CC(CN4CCC(N5CCC(N6CCc7[nH]c8nnc(-c9ccccc9O)cc8c7[C@H]6C)CC5)CC4)C3)C2)C(C)(C)C)cc1; C (C (10-100 fold))
5. Cc1ncsc1-c1ccc(CNC(=O)[C@@H]2C[C@@H](O)CN2C(=O)[C@@H](NC(=O)[C@H]2CCC3(CC2)C[C@H](N2CCC(c4cnc(N5CCN6c7cc(-c8ccccc8O)nnc7NC[C@H]6C5)nc4)CC2)C3)C(C)(C)C)cc1 (single isomer, unassigned) [I-70]; A (A (>500 fold))
6. C#Cc1ccc(CNC(=O)[C@@H]2C[C@@H](O)CN2C(=O)[C@@H](NC(=O)N2CC3(CC(N4CCC(c5cnc(N6CCc7[nH]c8nnc(-c9ccccc9O)cc8c7[C@H]6C)nc5)CC4)C3)C2)C(C)(C)C)cc1OC; B (B (>100-500 fold))
7. CC(C)C(C(=O)N1C[C@H](O)C[C@H]1C(=O)NCc1ccc(Cl)cc1)c1cc(N2CC3(CC(N4CCC(c5cnc(N6CCN7c8cc(-c9ccccc9O)nnc8NC[C@H]7C6)nc5)CC4)C3)C2)no1 (stereo partly shown); C (C (10-100 fold))
8. C#Cc1ccc(CNC(=O)[C@@H]2C[C@@H](O)CN2C(=O)[C@@H](NC(=O)N2CCC(N3CC4(CC(N5CCC(N6CCc7[nH]c8nnc(-c9ccccc9O)cc8c7[C@H]6C)CC5)C4)C3)CC2)C(C)(C)C)cc1; C (C (10-100 fold))
9. Cc1ncsc1-c1ccc(CNC(=O)[C@@H]2C[C@@H](O)CN2C(=O)[C@@H](NC(=O)[C@H]2CC3(C2)C[C@H](N2CCC(c4ccnc(N5CCN6c7cc(-c8ccccc8O)nnc7NC[C@@H]6C5)n4)CC2)C3)C(C)(C)C)cc1 (single isomer, unassigned) [I-3]; A (A (>500 fold))
10. C#Cc1cnc(CNC(=O)[C@@H]2C[C@@H](O)CN2C(=O)[C@@H](NC(=O)[C@H]2CC3(C2)C[C@H](N2CCC(N4CCC(N5CCN6c7cc(-c8ccccc8O)nnc7NC[C@H]6C5)CC4)CC2)C3)C(C)(C)C)c(OC)c1 (single isomer, unassigned) [I-330]; C (C (10-100 fold))

Prompt line: Endpoint output: Selectivity in MV411 of C#Cc1ccc(CNC(=O)[C@@H]2C[C@@H](O)CN2C(=O)[C@@H](NC(=O)[C@H]2CCC3(CC2)C[C@H](N2CCN(c4cnc(N5CCN6c7cc(-c8ccccc8O)nnc7NC[C@H]6C5)nc4)CC2)C3)C(C)(C)C)c(OC)c1 (single isomer, unassigned) [I-196] . Value?
Response line: C (C (10-100 fold))

Prompt line: Field request: Selectivity in MV411 | item: C#Cc1ccc([C@H](C)NC(=O)[C@@H]2C[C@@H](O)CN2C(=O)[C@@H](NC(=O)[C@H]2CC3(C2)C[C@H](c2cnc(N4CCC(N5CCN6c7cc(-c8ccccc8O)nnc7NC[C@H]6C5)CC4)nc2)C3)C(C)(C)C)cc1 (stereo partly shown) [I-362]
Response line: C (C (10-100 fold))

Prompt line: Requested read-out: Selectivity in MV411. Entry: `C#Cc1ccc(CNC(=O)[C@@H]2C[C@@H](O)CN2C(=O)[C@H](NC(=O)N2CC3(CC(N4CCC(c5cnc(N6CCc7[nH]c8nnc(-c9ccccc9O)cc8c7[C@H]6C)nc5)CC4)C3)C2)C(C)(C)CCN2CCN[C@H](C(=O)O)C2)cc1`
Response line: C (C (10-100 fold))

Prompt line: // lookup Selectivity in MV411 for Cc1ncsc1-c1ccc(CNC(=O)[C@@H]2C[C@@H](O)CN2C(=O)[C@@H](NC(=O)[C@H]2CC3(CC[C@H](N4CCC(c5cnc(N6CCN7c8cc(-c9ccccc9O)nnc8NC[C@H]7C6)nc5)CC4)CC3)C2)C(C)(C)C)cc1 (single isomer, unassigned) [I-65]
Response line: C (C (10-100 fold))

Prompt line: I'd like to know its Selectivity in MV411. The molecule in question is `C#Cc1ccc(CNC(=O)[C@@H]2C[C@@H](O)CN2C(=O)[C@@H](N(C)C(=O)N2CC3(CC(N4CCC(c5cnc(N6CCc7[nH]c8nnc(-c9ccccc9O)cc8c7[C@H]6C)nc5)CC4)C3)C2)C(C)(C)C)cc1`
Response line: C (C (10-100 fold))

Prompt line: Please look up its Selectivity in MV411: C#Cc1ccc(CNC(=O)[C@@H]2C[C@@H](O)CN2C(=O)[C@@H](NC(=O)[C@H]2CCC3(CC2)C[C@H](N2CCC(c4cnc(N5CCN6c7cc(-c8ccccc8O)nnc7NC[C@H]6C5)nc4)CC2)C3)C(C)(C)C)c(OC)c1 (single isomer, unassigned) [I-100]
Response line: C (C (10-100 fold))

Ref: patent US20250170248A1
